- assayedSystem: CYP2B6 (Homo sapiens)
- Format: biochemical
outcomeMeasure: pIC50
For clarity, pIC50 is expressed as the negative log10 of concentration in mol/L.

Incoming: Entry under review: C=C(C)[C@@H]1CCC(C)=C[C@H]1c1c(O)cc(CCCCC)cc1O [CBD, cannabidiol] . Reported pIC50?
Outgoing: 5.38

----------
- assayedSystem: UniProtKB P20813
- Format: biochemical
- experimentalSetup: human, microsomes from CYP2B6-overexpressing HEK293 cells, pH 7.4, probe nicotine (cotinine formation)
outcomeMeasure: inhibition at 30 min, 50 µM

Incoming: Entry under review: COC(=O)[C@H](c1ccccc1Cl)N1CCc2sccc2C1 . Reported inhibition at 30 min, 50 µM?
Outgoing: 60%

----------
- System: human liver microsomes (HLM)
- experiment: Inhibition of nicotine to nornicotine formation in pooled human liver microsomes
- Assay type: biochemical
- experimentalSetup: nicotine 500 μM
outcomeMeasure: pIC50
For clarity, pIC50 is expressed as the negative log10 of concentration in mol/L.

Incoming: Item C=C(C)[C@@H]1CCC(CO)=C[C@H]1c1c(O)cc(CCCCC)cc1O [7-OH-CBD, 7-hydroxy-cannabidiol] with human liver microsomes (HLM) - pIC50?
Outgoing: 5.10

Incoming: Item C=C(C)[C@@H]1CCC(C)=C[C@H]1c1c(O)cc(CCCCC)cc1O [CBD, cannabidiol] with human liver microsomes (HLM) - pIC50?
Outgoing: 5.29

----------
- assayedSystem: CYP2B6 (Homo sapiens, UniProt P20813)
- Sequence (P20813 1-491): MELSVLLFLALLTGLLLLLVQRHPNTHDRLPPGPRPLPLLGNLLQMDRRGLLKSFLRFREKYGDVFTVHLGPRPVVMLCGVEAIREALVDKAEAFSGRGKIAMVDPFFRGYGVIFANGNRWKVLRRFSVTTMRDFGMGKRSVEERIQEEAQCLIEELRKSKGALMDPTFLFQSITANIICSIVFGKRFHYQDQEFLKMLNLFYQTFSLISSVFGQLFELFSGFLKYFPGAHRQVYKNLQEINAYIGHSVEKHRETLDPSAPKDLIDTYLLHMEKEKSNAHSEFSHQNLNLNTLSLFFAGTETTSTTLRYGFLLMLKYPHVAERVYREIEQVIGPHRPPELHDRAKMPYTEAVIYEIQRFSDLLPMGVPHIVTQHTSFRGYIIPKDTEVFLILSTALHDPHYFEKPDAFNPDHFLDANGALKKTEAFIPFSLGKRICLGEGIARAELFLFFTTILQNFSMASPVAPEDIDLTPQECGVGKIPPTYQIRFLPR
- Assay type: biochemical
- experimentalSetup: human, microsomes from CYP2B6-overexpressing HEK293 cells, pH 7.4, probe nicotine 100 μM (nornicotine formation), IC50,u (binding-corrected IC50), nornicotine formation; nicotine 100 μM; rec CYP2B6 microsomes; IC50 × fu,inc
outcomeMeasure: IC50 at 30 min
Hey, just the number and the unit after it is fine.

Incoming: Entry under review: C=C(C)[C@@H]1CCC(C)=C[C@H]1c1c(O)cc(CCCCC)cc1O [CBD, cannabidiol] . Reported IC50 at 30 min?
Outgoing: 30 nM

----------
- assayedSystem: CYP2A6 (Homo sapiens, UniProt P11509)
- Sequence (P11509 whole entry): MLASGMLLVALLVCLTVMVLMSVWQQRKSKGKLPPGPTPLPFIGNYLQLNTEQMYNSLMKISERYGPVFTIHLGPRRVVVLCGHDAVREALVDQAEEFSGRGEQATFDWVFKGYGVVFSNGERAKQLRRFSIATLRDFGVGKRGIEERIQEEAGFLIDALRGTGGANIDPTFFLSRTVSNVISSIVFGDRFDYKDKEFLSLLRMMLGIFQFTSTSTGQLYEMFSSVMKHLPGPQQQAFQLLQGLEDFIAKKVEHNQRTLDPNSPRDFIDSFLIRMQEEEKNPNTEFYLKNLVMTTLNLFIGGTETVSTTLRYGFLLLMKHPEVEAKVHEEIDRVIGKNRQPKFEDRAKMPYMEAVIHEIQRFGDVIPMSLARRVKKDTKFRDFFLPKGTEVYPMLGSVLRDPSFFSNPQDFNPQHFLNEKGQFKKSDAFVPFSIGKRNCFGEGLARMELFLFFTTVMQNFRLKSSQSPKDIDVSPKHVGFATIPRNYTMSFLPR
- Assay type: biochemical
- experimentalSetup: IC50, nornicotine formation; nicotine 50 μM; rec CYP2A6 microsomes
outcomeMeasure: IC50 (µM)
Expressed in µM, but write only the number.

Incoming: Entry under review: C=C(C)[C@@H]1CCC(C)=C[C@H]1c1c(O)cc(CCCCC)cc1O [CBD, cannabidiol] . Reported IC50?
Outgoing: 3.7
